Protocol Text: Plasma protein binding via ultracentrifugation (UC)
Format: in vitro ADME, human
Condition Summary: human, neat pooled plasma, pH 7.4; ultracentrifugation, neat plasma; read-out: Fraction unbound, human plasma
Consider the cut-off 0.2. If the recorded fraction unbound at […] is strictly smaller, the label is TRUE; if not, the label is FALSE.

{"Molecule": "OC(c1cc(C(F)(F)F)nc2c(C(F)(F)F)cccc12)C1CCCCN1 (centres unmarked) [Mefloquine]", "Cat": "TRUE"}
{"Molecule": "Cc1nc(Nc2ncc(N3CCN(C)[C@H](C)C3)c(Nc3cc(C)n(C)n3)n2)cc(C2CC2)c1F [MMV253]", "Cat": "TRUE"}
{"Molecule": "Cc1cc(Nc2ccc(S(F)(F)(F)(F)F)cc2)n2nc(C(C)(F)F)nc2n1 [DSM265]", "Cat": "TRUE"}
{"Molecule": "C[C@H]1Cc2c([nH]c3cc(Cl)c(F)cc23)[C@@]2(N1)C(=O)Nc1ccc(Cl)cc12 [KAE609]", "Cat": "TRUE"}
{"Molecule": "[H]/N=C(\\N/C(=N/[H])Nc1ccc(Cl)cc1)NC(C)C [Proguanil]", "Cat": "FALSE"}
{"Molecule": "CCNCc1cc(Nc2ccnc3cc(Cl)ccc23)ccc1O [Desethylamodiaquine]", "Cat": "TRUE"}
{"Molecule": "CO[C@H]1O[C@@H]2O[C@@]3(C)CC[C@H]4[C@H](C)CC[C@@H]([C@H]1C)[C@@]24OO3 [Artemether]", "Cat": "TRUE"}
{"Molecule": "COc1cc(C)c2c(Oc3cccc(C(F)(F)F)c3)c(OC)cc(NC(C)CCCN)c2n1 (centres unmarked) [Tafenoquine]", "Cat": "TRUE"}
{"Molecule": "CC1(C)c2nc(-c3ccc(F)cc3)c(Nc3ccc(F)cc3)n2CCN1C(=O)CN [KAF156]", "Cat": "TRUE"}
{"Molecule": "CCN(CC)Cc1cc(Nc2ccnc3cc(Cl)ccc23)ccc1O [Amodiaquine]", "Cat": "TRUE"}
{"Molecule": "N#Cc1cc(NC(=O)[C@H]2c3ccccc3C(=O)N(CC(F)(F)F)[C@@H]2c2cccnc2)ccc1F [SJ733]", "Cat": "TRUE"}
{"Molecule": "CCc1nc(N)nc(N)c1-c1ccc(Cl)cc1 [Pyrimethamine]", "Cat": "TRUE"}
{"Molecule": "C[C@H]1c2cccc(O)c2C(=O)C2=C(O)[C@]3(O)C(=O)C(C(N)=O)=C(O)[C@@H](N(C)C)[C@@H]3[C@@H](O)[C@@H]21 [Doxycyclin]", "Cat": "FALSE"}
{"Molecule": "Clc1ccc2c(N3CCN(CCCN4CCN(c5ccnc6cc(Cl)ccc56)CC4)CC3)ccnc2c1 [Piperaquine]", "Cat": "TRUE"}
{"Molecule": "CS(=O)(=O)c1ccc(-c2cnc(N)c(-c3ccc(C(F)(F)F)nc3)c2)cc1 [MMV048]", "Cat": "TRUE"}
{"Molecule": "COc1ncnc(NS(=O)(=O)c2ccc(N)cc2)c1OC [Sulfadoxine]", "Cat": "TRUE"}
{"Molecule": "CC1(C)N=C(N)N=C(N)N1c1ccc(Cl)cc1 [Cycloguanil]", "Cat": "FALSE"}
